# measured_target: T1, human EphB4 (Homo sapiens, UniProt P54760)
# T1 construct: a protein of the extracellular region of each human Eph receptor fused with the SEAP protein and the His tag; made in house; host or cells: Expi293F cells
# T1 sequence (P54760 16-539 limits assumed): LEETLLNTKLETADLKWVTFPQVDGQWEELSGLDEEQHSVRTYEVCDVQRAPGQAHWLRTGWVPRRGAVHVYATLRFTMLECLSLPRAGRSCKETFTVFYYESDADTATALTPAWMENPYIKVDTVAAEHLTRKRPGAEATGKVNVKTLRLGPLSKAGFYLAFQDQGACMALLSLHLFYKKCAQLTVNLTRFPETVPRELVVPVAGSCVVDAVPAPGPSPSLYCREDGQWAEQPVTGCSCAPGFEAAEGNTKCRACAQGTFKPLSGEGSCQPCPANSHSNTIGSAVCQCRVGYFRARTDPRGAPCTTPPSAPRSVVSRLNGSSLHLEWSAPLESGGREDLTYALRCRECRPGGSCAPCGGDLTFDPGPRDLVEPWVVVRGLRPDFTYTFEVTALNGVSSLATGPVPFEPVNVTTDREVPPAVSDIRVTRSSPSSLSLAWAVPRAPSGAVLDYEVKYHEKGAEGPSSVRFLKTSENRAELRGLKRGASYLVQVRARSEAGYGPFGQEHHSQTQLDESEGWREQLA
# assay_method_text: Selectivity ELISA of humanized antibodies for human Eph receptor
# Type: binding
# experimental_setup: coated protein 1 nM
reported_endpoint: hEphB4-SEAP-: absorbance at 450 nm, percentage with respect to hEphA4-SEAP-His as 100% (%)

INSERT INTO assay_data (molecule, reported_measurement) VALUES
  ('90 (antibody, V domains shown, constant regions without entry; synthetic humanized antibody light chain variable region sequence; synthetic humanized antibody heavy chain variable region sequence) VL: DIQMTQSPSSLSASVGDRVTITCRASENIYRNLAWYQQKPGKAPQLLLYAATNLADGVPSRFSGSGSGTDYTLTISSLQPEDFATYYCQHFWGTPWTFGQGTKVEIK VH: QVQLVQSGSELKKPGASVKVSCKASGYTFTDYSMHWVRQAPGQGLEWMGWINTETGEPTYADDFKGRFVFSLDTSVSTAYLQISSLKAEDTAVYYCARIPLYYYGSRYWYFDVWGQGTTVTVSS', 5.0),
  ('82 (antibody, V domains shown, constant regions without entry; synthetic humanized antibody light chain variable region sequence; synthetic humanized antibody heavy chain variable region sequence) VL: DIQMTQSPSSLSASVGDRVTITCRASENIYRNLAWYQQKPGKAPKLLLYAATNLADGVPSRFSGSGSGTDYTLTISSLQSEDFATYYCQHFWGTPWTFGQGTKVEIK VH: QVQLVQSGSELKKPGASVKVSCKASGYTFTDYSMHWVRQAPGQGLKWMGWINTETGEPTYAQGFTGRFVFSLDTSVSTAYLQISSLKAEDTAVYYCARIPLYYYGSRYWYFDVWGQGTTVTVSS', 5.7);
